Exercise: state measured GIP EC50(pM) for each of the binders provided.
Biological target: T1, full-length human GIPR (GenBank NM_000164) with an N-terminal FLAG tag on HEK-293T cells (human), P48546
T1 chain: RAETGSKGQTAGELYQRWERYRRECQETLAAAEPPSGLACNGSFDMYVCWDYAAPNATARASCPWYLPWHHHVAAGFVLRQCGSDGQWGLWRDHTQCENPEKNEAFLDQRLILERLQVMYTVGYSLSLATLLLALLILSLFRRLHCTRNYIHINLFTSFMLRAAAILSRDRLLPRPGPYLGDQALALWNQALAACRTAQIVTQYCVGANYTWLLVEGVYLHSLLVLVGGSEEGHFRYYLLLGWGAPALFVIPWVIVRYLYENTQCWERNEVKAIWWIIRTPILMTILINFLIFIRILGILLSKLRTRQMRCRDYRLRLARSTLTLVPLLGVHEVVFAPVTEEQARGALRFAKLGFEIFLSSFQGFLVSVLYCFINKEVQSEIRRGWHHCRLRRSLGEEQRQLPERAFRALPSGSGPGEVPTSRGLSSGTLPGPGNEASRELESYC
Experiment: cell-based or functional assay
Numbered stars: 1 amine (or outer) side, 2 acyl side, 3 side chain; on linkers, the order of the positions; unused ones are H or OH. Square brackets hold non-standard residues; d marks the D form. Primed or numbered codes have the meaning given here. Side chains are listed from the residue outwards. Ends that are not written are not given here. * marks the point of attachment. C20 diacid = O=C(O)CCCCCCCCCCCCCCCCCCC(=O)*; C18 diacid = O=C(O)CCCCCCCCCCCCCCCCC(=O)*; C16 diacid = O=C(O)CCCCCCCCCCCCCCC(=O)*; γGlu = O=C(O)[C@H](CCC(=O)[*:2])N[*:1]; Iva = CC[C@](C)(N)C(=O)O; PEG3′ = not defined here; Abu = CC[C@H](N)C(=O)O; Aib = CC(C)(N)C(=O)O
State the answer as a number, implicitly in pM.

GIP EC50(pM) reported for this binder Y[Aib]EGTFISDYSIALDR[Aib]HQ[Aib]NFVNW[Iva]LAQRPSSGAPPK([γGlu-γGlu-C18 diacid])S (ends and bridges not checked) [Compound No. 554] : 0.82

Reported GIP EC50(pM) for Y[Aib]EGTFISDYSIALDR[Aib]HQ[Aib]NFVNW[Iva]LAQRPSSGK([Abu-γGlu-C18 diacid])PPPS (ends and bridges not checked) [Compound No. 541] was 0.73

Looking up Y[Aib]EGTFISDYSIALDR[Aib]HQ[Aib]NFVNW[Iva]LAQRPSSGAPPK([Gly-Gly-Gly-Gly-Gly-γGlu-C20 diacid])S (ends and bridges not checked) [Compound No. 461] , I see its GIP EC50(pM) listed as 1.3

Record Y[Aib]EGTFISDYSIALDR[Aib]HQ[Aib]NFVNW[Iva]LAQRPSSGK([PEG3′-PEG3′-γGlu-C16 diacid])PPPS (ends and bridges not checked) [Compound No. 497] , field GIP EC50(pM): 0.4

Value of measured GIP EC50(pM) for the entry Y[Aib]EGTFISDYSIALDR[Aib]HQ[Aib]NFVNW[Iva]LAQRPK([PEG3′-γGlu-C20 diacid])SGAPPPS (ends and bridges not checked) [Compound No. 514] : 1.14
